- assay_comment: MTT test
- Type: cell-based
- protocol_conditions: human, serum-free RPMI-1640, overnight incubation, mean ± SD of three independent tests, read-out: IC50 of cytotoxic action toward human PBMC
Ends that are not written are not given here.
readout_name: pIC50
Friendly reminder that pIC50 comes from taking -log10 of the concentration in mol/L.

Some substances with known pIC50 results, for comparison:
RFRLPFRRIHPPPFVRIHPPPFYRRFL-NH2 [ChBac3.4-1-NH2] :: 4.92
RFRLPFRRPPIRIPPPFYPPFRRFL-NH2 [ChBac3.4(Н-)] :: 4.46
RFRLPFRRPPIRIHPPPFYPPFRRFL-NH2 [ChBac3.4-NH2] :: 4.73
RIHPPPFYPPFRRFL-NH2 [ChBac3.4 (12-26)] :: 4.36

Item RFRRFRLPFRRIHPPPFVRIHPPPFYRRFL-NH2 [RFR-ChBac3.4-1-NH2] has what recorded pIC50?
4.74

Try the substance RFRLPFRRPWPIRIHPPPFYPWPFRRFL [ChBac3.4-2-COOH]
4.69

Try the substance RFRLPFRRPPIRIHPPPFYPPFRRFL [ChBac3.4-COOH]
4.44

----------
Each entry below carries its recorded IC50.
- assay_comment: MTT test
- Type: cell-based
- protocol_conditions: human, serum-free RPMI-1640, overnight incubation, mean ± SD of three independent tests, read-out: IC50 of cytotoxic action toward human PBMC
Ends that are not written are not given here.

Some substances with known IC50 results, for comparison:
RFRRFRLPFRRPPIRIH-NH2 [RFR-ChBac3.4 (1-14)-NH2] :: > 64 µM
RFRLPFRRPPIRIH-NH2 [ChBac3.4(1-14)-NH2] :: > 64 µM

Field: next substance
Item RFRLPFRRPPIRIHPPPFY-NH2 [ChBac3.4(1-19)-NH2] has what recorded IC50?
> 64 µM
